Collected normalized growth values appear next to each entry.
# method_notes: chemical genetic growth profiling, strain panel (AID 1159580);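 note: tested at 20 µM; growth read once vehicle control cultures reached saturation at 30 °C; 1 = growth at the plate median or of vehicle wells; lower values mean less growth of the strain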
# measurement_parameters: S. cerevisiae deletion strains, growth OD, locus YMR129W, hits give low values
Screen size: about 5,500 compounds; about 2,000 (36%) were called active. Roughly 18% stayed inconclusive and do not appear here. The list shows a part of the results.
measurement_label: normalized growth

COc1ccc2ccc(=O)oc2c1CC=C(C)C :: 0.904
CCCCC(=O)O[C@H]1CCC2C3CCc4cc(O)ccc4C3CC[C@@]21C (stereo partly specified) :: 1.01
CC(=O)Oc1ccc2c(c1)CCC1C2CCC2(C)C1CC(OC(C)=O)C2OC(C)=O (stereo unspecified) :: 0.995
COc1cc2ccc(=O)oc2c2ccoc12 :: 0.971
O=c1ccc2cc(O[C@@H]3O[C@H](CO)[C@@H](O)[C@H](O)[C@H]3O)c(O)cc2o1 :: 0.991
CC(=O)Oc1ccc2c(c1)CCC1C2CC[C@@]2(C)C1CC[C@@H]2OC(C)=O (stereo partly specified) :: 0.989
CN1CCN(C(c2ccccc2)c2ccccc2)CC1 :: 0.996
COc1cc2ccc(=O)oc2cc1O :: 0.976
CC(=O)OC1CCC2C3CCc4cc(O)ccc4C3CCC12C (stereo unspecified) :: 1.01
O=C(O)c1cccc(O)c1O :: 1.03
CC(C)=CCOc1c2occc2cc2ccc(=O)oc12 :: 0.921

---

# method_notes: chemical genetic growth profiling, strain panel (AID 1159580)
# measurement_parameters: S. cerevisiae deletion strains, growth OD, locus YLR342W, strain FKS1 (second series), hits give low values
Screen size: about 5,500 compounds; about 2,000 (36%) were called active. Roughly 18% stayed inconclusive and do not appear here. Some of the results follow.
measurement_label: normalized growth

COc1cc(OC)c2c(c1Cl)OC1(C2=O)C(O)=CC(=O)CC1C (stereo not drawn) :: 1.06
O=C1c2ccc(O)c(O)c2C(=O)c2c(O)ccc(O)c21 :: 1.02
COc1cc(OC)cc(OC)c1 :: 0.983
COc1ccc2ccc(=O)oc2c1CC=C(C)C :: 0.705
O=C(O)c1cc2cc(Cl)ccc2[nH]1 :: 1.01
c1coc(CNc2ncnc3nc[nH]c23)c1 :: 1.02
CCN(CC)CCNC(=O)COc1ccc(OC)cc1 :: 1.06
O=c1c(-c2ccc3c(c2)OCO3)coc2cc(O)ccc12 :: 0.981
CC(C(=O)O)c1ccc(N2Cc3ccccc3C2=O)cc1 (stereo not drawn) :: 1.01
CC(C)=CCOc1c2occc2cc2ccc(=O)oc12 :: 0.416
CN1Cc2c(N)cccc2C(c2ccccc2)C1 (stereo not drawn) :: 1.06
CCOc1ccc(Cc2nccc3cc(OCC)c(OCC)cc23)cc1OCC :: 0.901
COc1cc(O)c(C(=O)O)c(O)c1 :: 1.06

---

# method_notes: chemical genetic growth profiling, strain panel (AID 1159580)
# measurement_parameters: S. cerevisiae deletion strains, growth OD, locus YMR277W, strain FCP1, hits give low values
About 2,000 (36%) of roughly 5,500 compounds were called active. Not shown: some 18% with an inconclusive outcome. This is one part of the list.
normalized growth values for the compounds below.
measurement_label: normalized growth

O=S(=O)(Nc1ccc(-n2nc(C(F)(F)F)cc2-c2cccs2)cc1)c1ccc(F)cc1 :: 0.992
CCOC(=O)C(NC(C)=O)(Nc1ccc(F)c(Cl)c1)C(F)(F)F (stereo not given) :: 0.988
CCCCCc1ccc(S(=O)(=O)Nc2ncc(C)cc2Br)cc1 :: 0.956
N#CC(C#N)=NNc1ccc(-n2ccc(C(F)(F)F)n2)cc1 :: 0.865
N#CC(C#N)=NNc1cc(C(F)(F)F)ccc1OCC(F)(F)F :: 0.871

---

# method_notes: chemical genetic growth profiling, strain panel (AID 1159580)
# measurement_parameters: S. cerevisiae deletion strains, growth OD, locus YGL086W, strain mad1, hits give low values
The whole screen tested about 5,500 compounds, of which about 2,000 (36%) were called active. Inconclusive results (about 18%) are left out. The list shows a part of the results.
A collection of compounds and their measured normalized growth
measurement_label: normalized growth

OCCN1CCN(CCCN2c3ccccc3Sc3ccc(Cl)cc32)CC1 :: 0.993
CCCC(=O)Nc1ncnc2c1ncn2C1O[C@@H]2COP(=O)(O)O[C@H]2[C@H]1OC(=O)CCC (some centres undefined) :: 1
C[C@]12CCC3c4ccc(O)cc4CCC3C1CC[C@@H]2OC(=O)CCC1CCCC1 (some centres undefined) :: 0.994
CN1CCN(CCCN2c3ccccc3Sc3ccc(Cl)cc32)CC1 :: 0.61
N#Cc1ccc2c(c1)N(CCCN1CCC(O)CC1)c1ccccc1S2 :: 1.02
CN1CCN(C(c2ccccc2)c2ccccc2)CC1 :: 0.983
Cc1c(N(C)CS(=O)(=O)O)c(=O)n(-c2ccccc2)n1C :: 0.995
C=C(C)c1cc2cc(C(C)=O)c(O)cc2o1 :: 0.928
CC1=C2CCC3C(CC[C@]4(C)C(=O)CCC34)[C@@]2(C)CCC1=O (some centres undefined) :: 0.936

---

Documented normalized growth across a set of compounds
# method_notes: chemical genetic growth profiling, strain panel (AID 1159580)
# measurement_parameters: S. cerevisiae deletion strains, growth OD, locus YAL030W, strain snc1, hits give low values
The whole screen tested about 5,500 compounds, of which about 2,000 (36%) were called active. Inconclusive results (about 18%) are left out. This is one part of the list.
measurement_label: normalized growth

COc1cc(O)c(C(C)=O)c(OC)c1 :: 1
O=c1ccc2cc(O[C@@H]3O[C@H](CO)[C@@H](O)[C@H](O)[C@H]3O)c(O)cc2o1 :: 0.971
COc1cc(O)c(C)c(O)c1 :: 1.02
CCCC(=O)Nc1ncnc2c1ncn2C1O[C@@H]2COP(=O)(O)O[C@H]2[C@H]1OC(=O)CCC (stereo partly specified) :: 0.994
CC1=C2CCC3C(CC[C@]4(C)C(=O)CCC34)[C@@]2(C)CCC1=O (stereo partly specified) :: 0.993
CC(=O)Oc1ccc2c(c1)CCC1C2CC[C@@]2(C)C1CC[C@@H]2OC(C)=O (stereo partly specified) :: 0.984

---

# method_notes: chemical genetic growth profiling, strain panel (AID 1159580);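 note: tested at 20 µM; growth read once vehicle control cultures reached saturation at 30 °C; 1 = growth at the plate median or of vehicle wells; lower values mean less growth of the strain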
# measurement_parameters: S. cerevisiae deletion strains, growth OD, locus YLR371W, strain rom2, hits give low values
The whole screen tested about 5,500 compounds, of which about 2,000 (36%) were called active. Not shown: some 18% with an inconclusive outcome. Some of the results follow.
measurement_label: normalized growth

CC(=O)O[C@@H]1CC2C(C)(C)C(=O)[C@@H]3O[C@@H]3[C@]2(C)C2CC[C@]3(C)C(=CC(=O)O[C@H]3c3ccoc3)[C@@]21C (stereo partly specified) :: 0.979
Cn1nnnc1SCC1=C(C(=O)O)N2C(=O)C(NC(=O)C(OC=O)c3ccccc3)C2SC1 (stereo unspecified) :: 1.02
COC(=O)C[C@H]1C(C)(C)[C@@H](OC(C)=O)[C@@H]2CC3C4CC(=O)O[C@@H](c5ccoc5)[C@]4(C)CCC3[C@@]1(C)C2=O (stereo partly specified) :: 0.989
CCCCC/C=C\C/C=C\C/C=C\C/C=C\CCCC(=O)O :: 0.975
COc1ccc2[nH]cc(CCNC(C)=O)c2c1 :: 1.02
Nc1ncnc2nc[nH]c12 :: 0.985

---

# method_notes: chemical genetic growth profiling, strain panel (AID 1159580);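 note: tested at 20 µM; growth read once vehicle control cultures reached saturation at 30 °C; 1 = growth at the plate median or of vehicle wells; lower values mean less growth of the strain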
# measurement_parameters: S. cerevisiae deletion strains, growth OD, locus YMR307W, strain GAS1, hits give low values
The whole screen tested about 5,500 compounds, of which about 2,000 (36%) were called active. Inconclusive results (about 18%) are left out. The list shows a part of the results.
Parameter: normalized growth. Scope: all listed entries.
measurement_label: normalized growth

Cn1c([N+](=O)[O-])cnc1COC(N)=O :: 0.981
C[C@]12C=CC(=O)C=C1CCC1C2C(=O)C[C@@]2(C)C1CC[C@]2(O)C(=O)CO (stereo not given in full) :: 0.991
c1coc(CNc2ncnc3nc[nH]c23)c1 :: 1.11
Cc1cccc(N(C)C(=S)Oc2ccc3ccccc3c2)c1 :: 0.981
O=C(CSc1nnc(-c2ccco2)n1-c1ccc2c(c1)OCCO2)c1cccc(F)c1 :: 0.77
CC(=O)SC1CC2=CC(=O)CC[C@]2(C)C2CC[C@@]3(C)C(CC[C@@]34CCC(=O)O4)C12 (stereo not given in full) :: 1.03
Cn1cnc([N+](=O)[O-])c1Sc1ncnc2nc[nH]c12 :: 1.11
Nc1ncnc2nc[nH]c12 :: 1.18
Cc1cc(N=CNO)c2ccccc2n1 :: 1.19
c1ccc2c(c1)-c1cccc3cccc-2c13 :: 0.428

---

# method_notes: chemical genetic growth profiling, strain panel (AID 1159580);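 note: tested at 20 µM; growth read once vehicle control cultures reached saturation at 30 °C; 1 = growth at the plate median or of vehicle wells; lower values mean less growth of the strain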
# measurement_parameters: S. cerevisiae deletion strains, growth OD, locus YOR270C, strain vph1, hits give low values
The whole screen tested about 5,500 compounds, of which about 2,000 (36%) were called active. Roughly 18% stayed inconclusive and do not appear here. This is one part of the list.
Assign labels as follows, please: label 1 for normalized growth below 1; label 0 for normalized growth equal to or exceeding 1.

O=C1c2ccccc2-c2cccc3cccc1c23 :: label 1
CC1=C(C(=O)O)N2C(=O)[C@@H](NC(=O)[C@H](N)C3=CCC=CC3)C2SC1 (some centres undefined) :: label 0
CSCCC(NC=O)C(=O)NC(CC(C)C)C(=O)NC(Cc1ccccc1)C(=O)O (centres undefined) :: label 0
C[C@]12C=CC(=O)C=C1CCC1C2CC[C@]2(C)C(=O)CCC12 (some centres undefined) :: label 1
CC(=O)Oc1ccc2c(c1)CCC1C2CC[C@@]2(C)C1CC[C@@H]2OC(C)=O (some centres undefined) :: label 1
COc1c2occc2cc2ccc(=O)oc12 :: label 1
OCCN1CCN(CCCN2c3ccccc3Sc3ccc(Cl)cc32)CC1 :: label 0
CC(C)(O)CC[C@@H](O)[C@](C)(O)C1CC[C@@]2(O)C3=CC(=O)C4C[C@@H](O)[C@@H](O)C[C@]4(C)C3CC[C@]12C (some centres undefined) :: label 0
C[C@]12CCC3C(CC[C@H]4C[C@@H](O)CC[C@]34C)C1CCC2=O (some centres undefined) :: label 1
CCOc1nc2cccc(C(=O)OC(C)OC(=O)OC3CCCCC3)c2n1Cc1ccc(-c2ccccc2-c2nn[nH]n2)cc1 (centres undefined) :: label 0
CC(=O)OC1CCC2C3CCc4cc(O)ccc4C3CCC12C (centres undefined) :: label 1
CC1(C)C[C@@H]2C(=O)CC[C@H]3O[C@]3(C)CC[C@H]21 :: label 0
CNC(=O)CSP(=S)(OC)OC :: label 0
O=C(O)c1cccc(O)c1O :: label 0
